binders and their reported Median IC50 against viruses neutralized with an IC50 <50 µg/ml
Molecular target: Env of the clade F HIV-1 pseudoviruses of the cross-clade 162-pseudovirus panel (n = 15)
Assay: cell-based or functional assay
observation-type: Median IC50 against viruses neutralized with an IC50 <50 µg/ml (µg/mL)

1. PGT-130 (antibody, V domains shown) VH: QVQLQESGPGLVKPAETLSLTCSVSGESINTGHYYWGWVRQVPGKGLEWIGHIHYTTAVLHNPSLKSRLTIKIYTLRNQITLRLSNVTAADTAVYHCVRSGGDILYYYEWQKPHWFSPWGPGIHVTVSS VL: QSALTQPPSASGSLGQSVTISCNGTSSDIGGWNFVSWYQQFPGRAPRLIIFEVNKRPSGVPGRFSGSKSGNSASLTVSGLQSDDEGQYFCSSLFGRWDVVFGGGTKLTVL; 0.07
2. PGT-123 (antibody, V domains shown) VH: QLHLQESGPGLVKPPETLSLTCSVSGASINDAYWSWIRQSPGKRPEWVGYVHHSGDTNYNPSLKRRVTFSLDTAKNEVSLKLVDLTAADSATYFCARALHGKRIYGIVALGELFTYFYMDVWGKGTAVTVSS VL: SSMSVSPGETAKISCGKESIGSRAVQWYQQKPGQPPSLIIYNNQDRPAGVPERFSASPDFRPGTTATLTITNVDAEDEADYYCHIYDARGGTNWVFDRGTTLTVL; 0.09
3. PGT-131 (antibody, V domains shown) VH: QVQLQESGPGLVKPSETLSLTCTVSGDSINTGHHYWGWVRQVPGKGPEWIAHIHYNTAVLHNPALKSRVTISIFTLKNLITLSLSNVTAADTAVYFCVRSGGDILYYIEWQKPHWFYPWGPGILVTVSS VL: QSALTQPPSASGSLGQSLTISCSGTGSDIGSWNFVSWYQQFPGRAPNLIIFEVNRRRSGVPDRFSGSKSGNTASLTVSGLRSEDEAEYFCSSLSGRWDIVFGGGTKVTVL; 0.55
